All values here come from a melting point compilation (Tetko et al.; mined from patent text by program, amines drawn as free bases though some values may be those of a salt).

The entries below are paired with their reported melting point.

1) O=C1Nc2cc(Cl)ccc2C1(Br)Br    127 to 130 °C
2) O=C(Nc1nc(C2CC2)no1)C(c1ccccc1)c1ccccc1    163 °C
3) CC1=C(C(=O)Nc2ccc(Cl)cc2)SCCS1    115 to 117 °C
4) CC1CN(C(=O)CCl)c2ccccc21 (stereo unspecified)    78 to 79 °C

Provide only the value of recorded melting point for `COc1ccc2c3ccnc(C)c3n(CCCc3ccccc3)c2c1` 117 to 118 °C

Indicate its recorded melting point; the molecule in question is `CCN(CC)Cc1ccc(-c2cccc(-c3ccnc4c(C(=O)c5cccs5)cnn34)c2)cc1` 144 to 146 °C

###

melting point values, listed per item

1. CC(=CC(=O)O)c1ccc([N+](=O)[O-])cc1    167 to 169 °C
2. Nc1nc2c(c(N3CCN(CCc4ccccc4)CC3)n1)Cc1ccccc1-2    122 to 124 °C
3. C[C@H]1O[C@@H](C(Cl)(Cl)Cl)OC(=O)[C@@H]1C    128 to 130 °C
4. OC1(c2ccc(Cl)cc2)c2cc(Cl)c(Cl)cc2CCC1Br (stereo unspecified)    103 to 104 °C
5. N#Cc1ccc(-c2cn3c(C(F)(F)F)cccc3n2)cc1    > 300 °C
6. COc1cccc2c1OC(COS(=O)(=O)c1ccc(C)cc1)CC2 (stereo unspecified)    115 to 117 °C
7. O=C1c2ccc(OCCn3ccnc3)cc2CCC1Cc1ccc(Br)cc1 (stereo unspecified)    129 to 130 °C
8. CCCCCCCCCCCCCCCCCCc1nc2ncccc2o1    84 to 85 °C
9. N#Cc1ccc(NC(=O)CBr)cc1    166 to 168 °C
10. COc1ccccc1OCC(O)CN1CCCC(Cn2c(=O)[nH]c3ccccc32)C1 (stereo unspecified)    158 °C

Identify melting point associated with the molecule `O=C(O)CS(=O)(=O)CCCCCn1nc(-c2ccccc2)c(-c2ccccc2)c1-c1ccccc1` 200 °C

Name the recorded melting point of the item CC(C)(C)OC(=O)C(CN(Cc1ccccc1)Cc1ccccc1)CC1(C(=O)NC(Cc2ccc(OC(C)(C)C)cc2)C(=O)OC(C)(C)C)CCCC1 (stereo unspecified) in your answer. 82 to 87 °C

Provide measured melting point value, entry: CCOC(=O)/C=C/c1cccc(C2COc3c(C)c(C)c(NC(=O)CC(C)(C)C)c(C)c32)c1 (stereo unspecified) 199 to 200 °C

Tell me measured melting point for `O=c1c(O)c(-c2ccoc2)oc2ccccc12` please. 165 to 166 °C

State, in one line, measured melting point of `CCc1nn(CC(=O)NN)c(CC)c1Oc1cc(Cl)cc(Cl)c1` > 250 °C

Return melting point for the following molecule: `CCn1ncc2c(NCc3ccc(OCCN4CCOCC4)cc3)c3ccccc3nc21` 170 to 172 °C

In one line, give reported melting point of the entry `CNc1nc(C#N)c(C#N)nc1NC(C)(C)C` . > 250 °C

Provide one value: measured melting point of `O=C(Nc1nc(C(Cl)(Cl)Cl)ns1)c1ccccc1F` 149 °C

In one line, give reported melting point of the entry `COC(=O)CCc1ncc2oc(C(=O)OC)c(O)c2c1C(=O)OC` . 117 to 118 °C

Note melting point for the molecule shown: `O=C1Nc2cccnc2N(C(=O)CCCl)c2ccccc21` 216 to 218 °C

Annotate the molecule C=C(C)C(=O)NC1=CC(C(=O)O)C(O)(C(C)=O)C=C1 (stereo unspecified) with its measured melting point. 192 °C

###

Parameter melting point: see the listing below.

1. CC(O)(C1=CCNCC1)c1ccc(F)cc1 (stereo unspecified)    168 °C
2. CCC(=S)N1CCSC1=Nc1ccccc1C(C)C    79 to 81 °C
3. COc1cc(C2CCN(C(=O)C3CCN3)CC2)ccc1Nc1ncc2ccc(-c3ccccc3OC)n2n1 (stereo unspecified)    103 to 112 °C
4. CSc1ccc(C(=O)CBr)cc1F    70 to 71 °C

Give the value of melting point reported for the following: `OCCN1CCC(Cc2ccccc2)CC1` 62 to 64 °C

In one line, give reported melting point of the entry CC(C)(C)OC(=O)N[C@H](Cc1ccccc1)C(=O)N1CCC[C@H]1C(=O)NC1CCc2n[nH]cc2C1 (stereo partly specified) . 108 to 110 °C

###

Attribute: melting point

Please review the entries below; each comes with its answer.
1. CC(C)(C)[Si](C)(C)N1C(=O)CC1CC(=O)CC(=O)OCc1ccc([N+](=O)[O-])cc1 (centres undefined)    65 to 66.5 °C
2. CC(C)(CO)NCC(=O)N1C[C@@H](F)C[C@H]1C#N    146 to 148 °C
3. CCCCc1cc(=O)c(C(=O)OCC)cn1Cc1ccc(-c2ccccc2-c2nnn[nH]2)cc1    119 to 120 °C
4. O=C(NC1CCCCC1)c1ccc(Cn2cnc3ccccc32)cc1    189 to 191 °C

Look up melting point of CNS(=O)(=O)CC(=O)C1=C(C)NC(C)=C(C(=O)OC)C1c1cccc([N+](=O)[O-])c1 (centres undefined) and report it. 173 to 176 °C

Return reported melting point. Input compound: CN1CCC2(c3cccc(O)c3)CCCC2C1 (centres undefined) 151 to 153 °C

Recall and state the measured melting point for `Cc1ccccc1Cn1cnc(C#N)c1C#N` . 80 to 81 °C

Give reported melting point value for Cc1cccc(C)c1NC(=O)CN1CCN(CC(O)CC(c2ccc(F)cc2)c2ccc(F)cc2)C(C(N)=O)C1 (centres undefined) 110 °C

Tell me melting point reported for `CCN(C)c1ccc2c(c1)CN(c1cccc(Br)c1COC(C)=O)C2=O` 97 to 99 °C

###

melting point: recorded values

1) O=C(CCCN1CCC(c2ccccc2Cc2ccccc2)CC1)c1ccc(F)cc1    100 to 102 °C
2) CC(=O)NC[C@H]1CN(c2ccc(C(=O)c3cnc4cc(-c5ccccc5)ccn34)cc2)C(=O)O1    256 to 258 °C
3) C#CCn1cc(CO)sc1=O    97 to 98 °C
4) CN(C)CCCC(=O)N1CCC(C2c3ncc(Br)cc3CCc3cc(Cl)cc(Br)c32)CC1 (single isomer, unassigned; (+))    78 to 80 °C
5) N#Cc1nc(F)c(Cl)c(F)c1Cl    78 to 79 °C
6) Oc1ccc(-c2ncnc(C(F)(F)F)c2Cl)cc1    149 to 151 °C

Give the measured melting point for `CN(C)/C=C(\C#N)c1cccc(Br)c1` 102 to 105 °C

Given CN(C)c1cccc2c(S(=O)(=O)NCC(=O)N3CCCC3C(=O)NC(C=O)CCCN(C(=N)N)C(=O)OCc3ccccc3)cccc12 (stereo not given) , respond with its melting point. 105 to 115 °C

Write down melting point measured for item O=C1c2ccc(Cl)cc2C(O)N1CCO[N+](=O)[O-] (stereo not given) 116 to 118 °C

Using the record for `CC(=O)Nc1cccc(OCCCCC(=O)O)c1C=O` , state its measured melting point. 119 to 121 °C

For the compound CCCCc1nc(SC)c(C(C)(O)C(=O)O)n1Cc1ccc(-c2ccccc2S(=O)(=O)NC(=O)OCc2ccccc2)cc1 (stereo not given) , give its measured melting point value. 140 to 150 °C

###

# melting point values compiled below

Tell me its melting point given `CCOC(=O)C1=C(C)NC(C)=C(C(=O)OCC)C1c1ccccc1/C=C(\C)c1ccccc1` as the entry. 141 to 142 °C

For the molecule `Cc1cc(Oc2ccc(F)cc2[N+](=O)[O-])n[nH]1` , give its measured melting point value. 81 to 84 °C

For the molecule CC(NC(=S)NC(COC(=O)C(C)(C)C)Cc1ccccc1)c1ccc([N+](=O)[O-])cc1 (stereo not given) , report melting point. 99 to 100 °C

Tell us which melting point value is on record for CONC(=O)C(Oc1cc(OCc2ccsc2)ccc1C#N)c1ccccc1C (racemic) 155 to 156 °C

State its melting point for this molecule: `O=C(NCCCCCCCCn1ccnc1)c1cc2cc(Cl)ccc2[nH]1` 187 to 189 °C

Determine its reported melting point: `CCC(=O)OCC(CCn1cnc2cnc(N)nc21)COC(=O)CC` 77.5 to 79 °C

Please list melting point recorded for the molecule `COc1cccc(N2CC(=O)N(C)C(=O)N2)c1` 120 to 122 °C

Query melting point for COc1cccc(C(c2cccc(OC)c2)C(Nc2nc(OC)cc(OC)n2)C(=O)O)c1 (stereo not given) 58 to 66 °C

Fill in melting point for record `Nc1ncc(-c2ccc(F)cc2)cc1[N+](=O)[O-]` 232 °C

For the molecule `CCCCOC(=O)NCCc1nc(-c2ccc(-c3ccccc3)cc2)c[nH]1` , report melting point. 137 °C

For the molecule CC(O)c1ccc(-c2ccc(C(=O)OCc3ccc(Cl)cc3)cc2)cc1 (single isomer, unassigned; (+)) , give its reported melting point. 108 to 110 °C

Tell me measured melting point for O=C1Cc2ccccc2C(c2cccc(Cl)c2)N1 (stereo not given) please. 133 to 134 °C
